Assay: Pharmacokinetics in mice (intravenous and oral)
Assay type: in vivo, ICR mice
Conditions: male, ICR, mouse, plasma; LDD1937, mice, 10 mg/kg oral; read-out: Cmax
Result type: Cmax (ng/mL)
Only the number, expressed in ng/mL, is required.

# return recorded Cmax for input COC(=O)c1ccc2c(c1)/C(=C1/Nc3ccccc3/C1=N\OCCN1CCNCC1)C(=O)N2.Cl.Cl [LDD1937]
23.3

----------
Assay: Pharmacokinetics in mice (intravenous and oral)
Type: in vivo, ICR mice
Settings: male, ICR, mouse, plasma; LDD1937, mice, 10 mg/kg intravenous
Description: The protocols for the animal studies were approved by the Institute of Laboratory Animal Resources of Dongguk University, Seoul, South Korea (IACUC-2015-055-1). Five-week-old male Imprinting Control Region (ICR) mice were purchased from the Charles River Company Korea (Orient, Seoul, South Korea). […]
Result type: clearance (mL/min/kg)
Only the number, expressed in mL/min/kg, is required.

# return recorded clearance for input COC(=O)c1ccc2c(c1)/C(=C1/Nc3ccccc3/C1=N\OCCN1CCNCC1)C(=O)N2.Cl.Cl [LDD1937]
83.6

----------
Experiment: Pharmacokinetics in mice (intravenous and oral)
Assay type: in vivo, ICR mice
Conditions: male, ICR, mouse, plasma; LDD1937, mice, 10 mg/kg oral
Result type: bioavailability (%)
Only the number, expressed in %, is required.

# return recorded bioavailability for input `COC(=O)c1ccc2c(c1)/C(=C1/Nc3ccccc3/C1=N\OCCN1CCNCC1)C(=O)N2.Cl.Cl`
1.43

Recorded values, source paper PMC5787524.
